Reported IC50 by item:
# TESTED SYSTEM: c-Myc template DNA (c-myc quadruplex)
# ASSAY COMMENT: Quadruplex binding / stop assay (Taq polymerase arrest, capillary electrophoresis)
# STUDY CONDITIONS: read-out: Stop Data c-Myc μM; concentration at which 50% of the DNA was arrested (arrested:full-length 1:1)
All answers are understood in µM, so give the number only.

• N[C@@H]1CCN(c2c(F)cc3c(=O)c(C(=O)NCCCN4CCOCC4)cn4c3c2Oc2c-4ccc3ccccc23)C1 = 1.8
• CN1CCN(CCCNC(=O)c2cn3c4c(c(N5CC[C@@H](NC(=O)CCN6CCN(C)CC6)C5)c(F)cc4c2=O)Oc2cc4c(cc2-3)oc2ccccc24)CC1 = 1.75

Attention now turns to another entry.
// query Entry CC(C)(C)OC(=O)N[C@@H]1CCN(c2c(F)cc3c(=O)c(C(=O)NCCCN4CCOCC4)cn4c3c2Oc2cc3ccccc3cc2-4)C1 has what IC50?
// result 2.5
